Would you mind telling me the reported inhibition of each entry?
Target: Ephrin type-B receptor 4 (Homo sapiens);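 note: reported value is the mean percent inhibition of EPHB4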
Sequence (whole entry): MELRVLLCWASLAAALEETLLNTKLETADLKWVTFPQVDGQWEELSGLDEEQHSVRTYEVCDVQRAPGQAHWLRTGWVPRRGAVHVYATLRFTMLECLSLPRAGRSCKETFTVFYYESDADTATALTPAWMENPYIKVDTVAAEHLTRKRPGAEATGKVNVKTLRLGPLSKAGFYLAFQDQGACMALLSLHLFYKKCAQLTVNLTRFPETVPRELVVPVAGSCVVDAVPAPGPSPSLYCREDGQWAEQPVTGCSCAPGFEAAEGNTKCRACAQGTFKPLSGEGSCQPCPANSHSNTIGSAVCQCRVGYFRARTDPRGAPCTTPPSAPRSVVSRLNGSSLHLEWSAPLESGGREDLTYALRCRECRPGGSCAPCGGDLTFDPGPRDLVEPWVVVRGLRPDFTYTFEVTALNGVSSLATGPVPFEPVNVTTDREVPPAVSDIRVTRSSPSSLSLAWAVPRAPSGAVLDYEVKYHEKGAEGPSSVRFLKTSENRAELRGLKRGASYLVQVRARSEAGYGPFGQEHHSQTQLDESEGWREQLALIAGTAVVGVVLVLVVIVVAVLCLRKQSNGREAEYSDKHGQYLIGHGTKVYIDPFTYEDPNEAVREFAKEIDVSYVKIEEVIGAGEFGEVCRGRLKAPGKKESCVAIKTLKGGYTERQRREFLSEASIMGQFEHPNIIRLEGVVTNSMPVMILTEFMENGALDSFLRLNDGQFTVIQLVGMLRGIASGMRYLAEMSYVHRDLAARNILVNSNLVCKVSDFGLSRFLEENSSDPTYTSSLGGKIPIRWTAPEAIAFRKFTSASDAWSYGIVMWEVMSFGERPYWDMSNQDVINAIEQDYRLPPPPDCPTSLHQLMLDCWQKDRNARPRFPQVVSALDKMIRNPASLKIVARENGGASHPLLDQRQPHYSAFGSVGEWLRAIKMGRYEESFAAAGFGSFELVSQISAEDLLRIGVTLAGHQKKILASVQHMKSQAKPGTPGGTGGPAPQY
Details: at 1 µM
Answers are plain numbers, in %.

Solved entries:
[[record]]
smiles_representation = "COc1ccc2ncnc(Nc3ccc(OCc4ccccc4)cc3)c2c1"
readout_units = "%"
measured_number = 0.41

[[record]]
smiles_representation = "[O-][S+]1CCN(Cc2ccc(-c3ccc4ncnc(Nc5ccc(OCc6ccccc6)c(Cl)c5)c4c3)o2)CC1"
readout_units = "%"
measured_number = -0.05

[[record]]
smiles_representation = "COC(=O)Nc1nc2cc(Oc3ccc(NC(=O)Nc4cccc(Br)c4)cc3)ccc2[nH]1"
readout_units = "%"
measured_number = 26


INPUT: Please look up its inhibition: O=C(Nc1ccc(Oc2ccc3[nH]c(NC(=O)c4ccco4)nc3c2)cc1)Nc1cc(C(F)(F)F)ccc1F
OUTPUT: 63.8

---

Target: CDK3/Cyclin E (Homo sapiens) (UniProt P24864+Q00526);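 note: each figure is a mean percent inhibition of the CDK3/cyclin E complex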
Sequence (P24864 whole entry, looked up): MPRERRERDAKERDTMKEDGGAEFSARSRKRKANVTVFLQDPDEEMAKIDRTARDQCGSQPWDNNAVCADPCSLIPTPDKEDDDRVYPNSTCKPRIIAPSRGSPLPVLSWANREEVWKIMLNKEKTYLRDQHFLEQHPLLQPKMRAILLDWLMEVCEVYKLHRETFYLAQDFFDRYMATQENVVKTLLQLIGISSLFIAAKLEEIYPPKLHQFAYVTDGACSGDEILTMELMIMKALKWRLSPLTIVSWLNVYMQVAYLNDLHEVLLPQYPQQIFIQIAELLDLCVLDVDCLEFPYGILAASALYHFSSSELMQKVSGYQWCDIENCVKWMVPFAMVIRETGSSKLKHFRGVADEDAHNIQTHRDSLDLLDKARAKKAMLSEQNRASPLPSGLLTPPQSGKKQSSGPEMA
Sequence (Q00526 whole entry, looked up): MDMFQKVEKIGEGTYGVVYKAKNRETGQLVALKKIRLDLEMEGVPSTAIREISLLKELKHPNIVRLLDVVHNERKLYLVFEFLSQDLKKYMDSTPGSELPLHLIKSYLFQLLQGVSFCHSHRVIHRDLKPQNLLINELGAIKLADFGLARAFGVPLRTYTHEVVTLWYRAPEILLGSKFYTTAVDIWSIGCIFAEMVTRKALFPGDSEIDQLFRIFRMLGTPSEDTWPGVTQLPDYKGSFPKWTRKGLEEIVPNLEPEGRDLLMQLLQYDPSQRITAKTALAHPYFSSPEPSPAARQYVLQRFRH
Details: at 1 µM
property: inhibition (%)
Numbers only, in %.

Example results:
[[record]]
smiles_representation = "CN(C)C(=O)O[C@@H]1CN[C@@H](C#Cc2cc3ncnc(Nc4ccc(OCc5cccc(F)c5)c(Cl)c4)c3s2)C1"
measured_number = -1.66

[[record]]
smiles_representation = "N#Cc1cccc(Nc2nccc(-c3cnn4ncccc34)n2)c1"
measured_number = 99.9

[[record]]
smiles_representation = "COc1cc2ncnc(Nc3ccc4c(cnn4Cc4ccccc4)c3)c2cc1OC"
measured_number = -1.25


Please report inhibition for every entry that follows.
1. C[C@@H](Oc1cc(-n2cnc3ccc(OC[C@@H](O)CO)cc32)sc1C(N)=O)c1ccccc1Cl
2. [O-][S+]1CCN(Cc2ccc(-c3ccc4ncnc(Nc5ccc(OCc6ccccc6)c(Cl)c5)c4c3)o2)CC1
3. O=C1Nc2ccccc2/C1=C/Nc1ccc2[nH]c(=O)[nH]c2c1
4. CN(c1ccc(NC(=O)Nc2ccc(OC(F)(F)F)cc2)cc1)c1ccnc(Nc2cccc(S(N)(=O)=O)c2)n1
5. Cc1cc(-c2ccccn2)cc(C)c1/C=C/c1cncc(-c2nn[nH]n2)c1

OUTPUT:
1: 1.56; 2: -1.44; 3: 8.57; 4: 3.98; 5: -2.71

Data provenance: ChEMBL document CHEMBL1961873
